tested.target: Tubulin
protocol.text: Inhibition of tubulin polymerization (unknown origin) incubated for 0.5 hrs in presence of GTP by spectrophotometer analysis
attribute.measured: IC50 (µM)
Give just the numeric value; µM need not be written.

## Task I have this compound here, COc1ccc(Nc2nc3nccc(-c4cc(OC)c(OC)c(OC)c4)n3n2)cc1O , and I need its recorded IC50.
## Result 4.9

## Task Continue with COc1ccc(C2C(C(C)=O)=C(C)N=C3N=C(c4cc(OC)c(OC)c(OC)c4)NN32)cc1[N+](=O)[O-] (configuration not stated)
## Result 9.9
